assay: NCI Yeast Anticancer Drug Screen. Data for the sgs1 mgt1 strain (AID 161); conditions: S. cerevisiae sgs1 mgt1 strain, at 50.0 µM (retest, dose inferred, filed as 5.0), stronger effect = higher value
Compounds without any hit were thinned out: in the full panel of roughly 79,000, 15% have a hit.
Binary classification by growth inhibition, with 70% as an inclusive lower bound for yes; all other cases are no.

Worked cases, answers included:
compound	category
O=[N+]([O-])C1(CO)COC(CCc2ccccc2)OC1 (stereo unspecified)	no
Cc1cc(N2C(=O)CCSC2=S)c([N+](=O)[O-])cc1C	yes
Cc1c2ccccc2c(=O)n2c(-c3ccccn3)cccc12	no
O=c1nc(NC(c2ccccc2)(c2ccccc2)c2ccccc2)ccn1CCNCCn1ccc(NC(c2ccccc2)(c2ccccc2)c2ccccc2)nc1=O	yes
Cc1ccc(O)c(Cc2cccc(Cl)c2)c1	yes
O=C(/C=C/c1ccccc1)NOC(=O)/C=C/c1ccccc1	yes

Textbook exercise: given the entry COc1ccc(C(C)c2cc3c(cc2OC/C(C)=N/NC(N)=O)OCO3)cc1 (stereo unspecified) , state whether its growth inhibition is greater than or equal to 70%.
yes

Also need N#C/C(=C1C=C/C(=N/O)C=C/1Cl)c1ccccc1 , thanks.
no

Also need ClC1=C(Cl)C(Cl)=C(Cl)C1 , thanks.
yes

Also need CN(C)C(=S)SSSSC(=S)N(C)C , thanks.
yes

Also need COc1ccc(C2Oc3ccc(Cl)cc3C=C2[N+](=O)[O-])cc1OC (stereo unspecified) , thanks.
yes
